Target: T1, recombinant canine Nerve Growth Factor (Canis lupus familiaris NGF) (canine (Canis lupus familiaris), UniProt Q29074 110-229 (pig entry), limits assumed)
T1 construct: also called canine NGF; Dog NGF
T1 chain: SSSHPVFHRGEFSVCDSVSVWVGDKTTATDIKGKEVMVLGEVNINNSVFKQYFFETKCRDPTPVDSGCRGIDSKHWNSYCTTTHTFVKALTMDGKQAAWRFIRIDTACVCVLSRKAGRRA
Assay: SPR, 1:1 binding fit, canine NGF
Here, each record is paired with measured koff data.
readout-type: koff (s⁻¹)

binder	readout-type	reported-measurement
SSM-14 (LC SSMwtLCR53S, HC SSMwtHCG31E) (antibody, V domains shown) VH: EVQLVESGGDLARPGGSLKLSCVVSGFSLIEYDINWVRQAPGKGLQWVTMIWGDGTTDYNSALKSRFTVSRDNAMNTVYLQMNSLRVEDTAVYYCARGGYYYGTSYYFDYWGQGTLVTVSS VL: DIVMTQTPLSLSVSPGETASISCRASQDISNHLNWFRQKPGQSPQRLIYYISSFHSGVPDRFSGSGSGTDFTLRISRVEADDTGVYYCQQSKTLPYTFGAGTKLEIK	koff	0.00812
SSM-34 (LC SSM135LCR53S, HC135 (G103A)) (antibody, V domains shown, The light chain is the LTM135 template (E3M H32N) plus R53S) VH: EVQLVESGGDLARPGGSLKLSCVVSGFSLIGYDINWVRQAPGKGLQWVTMIWGDGTTDYNSALKSRFTVSRDNAMNTVYLQMNSLRVEDTAVYYCARGGYYYATSYYFDYWGQGTLVTVSS VL: DIVMTQTPLSLSVSPGETASISCRASQDISNNLNWFRQKPGQSPQRLIYYISSFHSGVPDRFSGSGSGTDFTLRISRVEADDTGVYYCQQSKTLPYTFGAGTKLEIK	koff	0.000192
SSM-2 (LC E3M, HC SSMwtHCG31Q) (antibody, V domains shown, IgG expressed in HEK293; constant regions are not restated) VH: EVQLVESGGDLARPGGSLKLSCVVSGFSLIQYDINWVRQAPGKGLQWVTMIWGDGTTDYNSALKSRFTVSRDNAMNTVYLQMNSLRVEDTAVYYCARGGYYYGTSYYFDYWGQGTLVTVSS VL: DIVMTQTPLSLSVSPGETASISCRASQDISNHLNWFRQKPGQSPQRLIYYISRFHSGVPDRFSGSGSGTDFTLRISRVEADDTGVYYCQQSKTLPYTFGAGTKLEIK	koff	0.000114
SSM-36 (LC SSM135LCR53S, HC SSM135HCG31E) (antibody, V domains shown, Both chains are built on the LTM135 template (HC G103A, LC H32N)) VH: EVQLVESGGDLARPGGSLKLSCVVSGFSLIEYDINWVRQAPGKGLQWVTMIWGDGTTDYNSALKSRFTVSRDNAMNTVYLQMNSLRVEDTAVYYCARGGYYYATSYYFDYWGQGTLVTVSS VL: DIVMTQTPLSLSVSPGETASISCRASQDISNNLNWFRQKPGQSPQRLIYYISSFHSGVPDRFSGSGSGTDFTLRISRVEADDTGVYYCQQSKTLPYTFGAGTKLEIK	koff	0.00033
